Source: ChEMBL document CHEMBL4831515

Experiment: Volume of distribution in Sprague-Dawley rat at 2 mg/kg, iv measured after 5 to 600 mins by LC-MS/MS analysis
Assay type: ADME, organism-based
Conditions: in vivo, time 5-600 min
result.type: Vd
Could you give the number and then its unit, please?

Which Vd value is on record for `Cc1cc(/C=C/C#N)cc(C)c1Oc1nc(Nc2ccc(C#N)cc2)nc2c1CSCC2` ? 0.702 L/kg

====

Assay: Tmax in Sprague-Dawley rat at 20 mg/kg, po measured after 15 to 720 mins by LC-MS/MS analysis
Format: ADME, organism-based
Details: in vivo, time 15-720 min
result.type: Tmax (min)
Just the number please, in min, no unit attached.

Value lookup for Tmax; key = `Cc1cc(/C=C/C#N)cc(C)c1Oc1nc(Nc2ccc(C#N)cc2)nc2c1CSCC2` 15

====

Test: in vitro
Details: human, MT4 cells
Description: Selectivity index, ratio of CC50 for human MT4 cells to EC50 for HIV1 harboring E138K mutant infected in human MT4 cells
result.type: selectivity ratio
The answer should be a number; do not append a unit.

Sample records with selectivity ratio:
substance.smiles | selectivity ratio
Cc1cc(C#N)cc(C)c1Oc1nc(NC2CCN(Cc3ccc(S(C)(=O)=O)cc3)CC2)nc2c1CSCC2 | 3100
Cc1cc(/C=C/C#N)cc(C)c1Oc1nc(Nc2ccc(C#N)nc2)nc2c1CSCC2 | 8520

Using the record for `Cc1cc(/C=C/C#N)cc(C)c1Oc1nc(NC2CCN(Cc3ccc(S(C)(=O)=O)cc3)CC2)nc2c1CSCC2` , report its selectivity ratio. 619

Entry `Cc1cc(C#N)cc(C)c1Oc1nc(Nc2ccc(C#N)cc2)nc2c1CSCC2` : reported selectivity ratio = ? 21400

====

Assay: Half life in Sprague-Dawley rat at 2 mg/kg, iv measured after 5 to 600 mins by LC-MS/MS analysis
Format: ADME, organism-based
Conditions: in vivo, time 5-600 min
result.type: half-life (h)
Respond numerically; units are h and should not be typed.

// query half-life value for entry `Cc1cc(/C=C/C#N)cc(C)c1Oc1nc(Nc2ccc(C#N)cc2)nc2c1CSCC2` 1.94

====

Parameter selectivity ratio: see the listing below.
Assay: Selectivity ratio of CC50 for human MT4 cells to IC50 for HIV1 RES056 infected in MT4 cells
// response body must contain only the number

Here are 2 compounds together with their reported answers.
substance.smiles | selectivity ratio
Cc1cc(/C=C/C#N)cc(C)c1Oc1nc(Nc2ccc(C#N)nc2)nc2c1CSCC2 | 1340
Cc1cc(/C=C/C#N)cc(C)c1Oc1nc(NC2CCN(Cc3cccc(C(N)=O)c3)CC2)nc2c1CSCC2 | 21

Need selectivity ratio of `Cc1cc(C#N)cc(C)c1Oc1nc(Nc2ccc(C#N)cc2)nc2c1CSCC2` , thanks. 1360

For the compound `Cc1cc(C#N)cc(C)c1Oc1nc(Nc2ccc(C#N)nc2)nc2c1CSCC2` , what selectivity ratio is on record? 119

====

Test: Cytotoxicity against human MT4 cells assessed as reduction in cell viability by MTT assay
Recorded CC50 values for a group of compounds are listed next.

Completed entries (count: 3):
substance.smiles | CC50
Cc1cc(C#N)cc(C)c1Oc1nc(NC2CCN(Cc3ccc([N+](=O)[O-])cc3)CC2)nc2c1CSCC2 | > 236 µM
Cc1cc(C#N)cc(C)c1Oc1nc(NC2CCN(Cc3ccc(S(N)(=O)=O)cc3)CC2)nc2c1CSCC2 | > 221 µM
Cc1cc(C#N)cc(C)c1Oc1nc(Nc2ccc(C#N)cn2)nc2c1CSCC2 | > 302 µM

Reported CC50, compound `Cc1ccnc2c1NC(=O)c1cccnc1N2C1CC1` : ____ > 15 µM

====

Assay: Cytotoxicity against human MT4 cells assessed as reduction in cell viability by MTT assay
# CC50 values compiled below

Please look up its CC50: `Cc1cc(C#N)cc(C)c1Oc1nc(NC2CCN(Cc3ccc(C(N)=O)cc3)CC2)nc2c1CSCC2` > 236 µM

Quick one: CC50 of `Cc1cc(C#N)cc(C)c1Oc1nc(Nc2ccc(C#N)cc2)nc(N)c1Br` ? > 4.59 µM

May I ask what CC50 has been recorded for `Cc1cc(/C=C/C#N)cc(C)c1Oc1nc(Nc2ccc(C#N)cc2F)nc2c1CSCC2` ? > 273 µM

Quick check: CC50 of `Cc1cc(C#N)cc(C)c1Oc1nc(NC2CCN(Cc3cccc(C(N)=O)c3)CC2)nc2c1CSCC2` ? > 236 µM

Name the reported CC50 value associated with the compound `O=C1Nc2ccc(Cl)cc2[C@@](C#CC2CC2)(C(F)(F)F)O1` > 6.34 µM

What does the data say about its CC50? Entry: `Cc1cc(C#N)cc(C)c1Oc1nc(Nc2ccc(C#N)cc2F)nc2c1CSCC2` > 290 µM
